Tested on: KRAS G12C-dependent Ba/F3 cells
Test: Ba/F3 proliferation assay, KRAS G12C
Type: cell-based
Details: Mus musculus, BaF3, 72 h, AlamarBlue
pIC50: −log10 of the molar value.
Could you label it Criterion met if measured pIC50 is 8 or higher, and Criterion not met otherwise?

Answered cases to consult:
C[C@H](Oc1cc(-c2cnn(C)n2)nc(-c2noc3c2CCC[C@@]32CCCc3sc(N)c(C#N)c32)n1)[C@@H]1CCCN1C | Criterion not met
C[C@H](Oc1cc(N2CC[C@H](N3CCCCC3)C2)nc(-c2noc3c2CCC[C@@]32CCCc3sc(N)c(C#N)c32)n1)[C@@H]1CCCN1C | Criterion not met
C[C@H](Oc1cc(N2CC[C@@H](O)C2)nc(-c2noc3c2CCC[C@@]32CCCc3sc(N)c(C#N)c32)n1)[C@@H]1CCCN1C | Criterion not met

INPUT: Has C[C@H](Oc1cc(-n2ccc(-c3cn([C@H]4CCOC4)nn3)n2)nc(-c2noc3c2CCC[C@@]32CCCc3sc(N)c(C#N)c32)n1)[C@@H]1CCCN1C a recorded pIC50 greater than or equal to 8?
OUTPUT: Criterion met

INPUT: Has C[C@H](Oc1cc(-c2ccn(-c3ccsc3)n2)nc(-c2noc3c2CCC[C@@]32CCCc3sc(N)c(C#N)c32)n1)[C@@H]1CCCN1C a recorded pIC50 greater than or equal to 8?
OUTPUT: Criterion not met

INPUT: Has C[C@H](Oc1cc(N2Cc3cnn(C)c3C2)nc(-c2noc3c2CCC[C@@]32CCCc3sc(N)c(C#N)c32)n1)[C@@H]1CCCN1C a recorded pIC50 greater than or equal to 8?
OUTPUT: Criterion not met
